- TEST SYSTEM: EPHB1 (UniProt P54762)
- Sequence (P54762 whole entry, looked up): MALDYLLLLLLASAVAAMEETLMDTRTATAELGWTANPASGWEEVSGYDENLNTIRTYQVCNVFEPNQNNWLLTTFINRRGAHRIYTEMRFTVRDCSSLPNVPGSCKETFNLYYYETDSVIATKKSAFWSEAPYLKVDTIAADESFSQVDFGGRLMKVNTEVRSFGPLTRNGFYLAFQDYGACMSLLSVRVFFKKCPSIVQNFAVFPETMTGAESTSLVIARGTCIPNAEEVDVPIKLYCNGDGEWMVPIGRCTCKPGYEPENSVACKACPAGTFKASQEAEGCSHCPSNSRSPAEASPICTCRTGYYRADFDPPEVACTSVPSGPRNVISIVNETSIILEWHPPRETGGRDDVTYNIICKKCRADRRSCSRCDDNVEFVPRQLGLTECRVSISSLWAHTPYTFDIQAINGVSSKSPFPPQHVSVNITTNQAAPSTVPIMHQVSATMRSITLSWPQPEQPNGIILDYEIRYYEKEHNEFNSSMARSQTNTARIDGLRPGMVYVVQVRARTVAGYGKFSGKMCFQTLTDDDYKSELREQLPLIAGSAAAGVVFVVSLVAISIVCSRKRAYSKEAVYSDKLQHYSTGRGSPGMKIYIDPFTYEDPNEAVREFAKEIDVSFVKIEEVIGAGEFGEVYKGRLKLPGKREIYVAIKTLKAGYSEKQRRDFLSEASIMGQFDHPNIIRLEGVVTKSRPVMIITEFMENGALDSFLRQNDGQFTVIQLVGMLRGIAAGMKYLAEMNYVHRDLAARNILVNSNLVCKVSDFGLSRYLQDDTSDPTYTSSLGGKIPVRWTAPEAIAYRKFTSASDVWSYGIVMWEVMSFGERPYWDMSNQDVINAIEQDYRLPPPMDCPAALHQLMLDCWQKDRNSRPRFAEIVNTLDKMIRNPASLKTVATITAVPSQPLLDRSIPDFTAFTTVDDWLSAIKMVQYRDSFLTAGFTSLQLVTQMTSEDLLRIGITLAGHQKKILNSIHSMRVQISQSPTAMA
- PROCEDURE SUMMARY: phosphorylation enrichment, bacterial display (enrichment ratio); higher = better substrate or ligand; peptides without Tyr show the background;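 also: 11-residue human phosphosite peptides and single-mutation variants displayed on the E. coli surface, counted by deep sequencing, each peptide's frequency after selection divided by its frequency in the unselected input library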;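 also: frequency after pTyr selection over input frequency; kinase dosed for 20-30% of maximal phosphorylation in three min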
// thresholds for phosphorylation enrichment classes: low: < 0.6; medium: ≥ 0.6 and < 0.8; high: ≥ 0.8

| RESIDUE CODES | GROUP |
| --- | --- |
| YKPGFYNLKEK [LAMA1_Y490_C485Y] | low |
| EEGNPSFSSAR [MCCC2_Y520_Y520S_YF] | low |
| VECRVYAEDPF [PCCA_Y401_YF] | medium |
| LRNRVYEVPVE [SLC26A3_Y756] | high |
| GRRGQYVMPSE [TTC7A_Y396_L399P] | low |

[in] Categorize the following entry: RARIRYAQEHD [NSD1_Y1987]
[out] medium

[in] Sort into band: MEIHAYLKLLE [LMNA_Y376_R377L]
[out] high

[in] State the class of the sequence shown: QKKEEYKMALY [F8_Y1990_R1985Q]
[out] high

[in] Exam item: assign SHMVDYQPFRK [TEX37_Y25_YF] to the correct category.
[out] low

[in] Hi there! Could you help me figure out the category for MFNPMYALFRT [HUWE1_Y4078] please?
[out] high

[in] For this sequence, which bin applies? MKKQKYGRIIM [HSD17B4_Y143]
[out] low

Measured values drawn from the supplement of paper PMC10065799 for this set.
